# Assay notes: total protein half-life in vivo (active degradation + dilution); higher = more stable protein
# Cond: wild type E. coli NCM3722; growth: P-lim chemostat; doubling time 12 h
Label scheme for total protein half-life in vivo: lower than 9 h is not fulfilled, 9 h and above is fulfilled.

Macromolecule sequence: MPRFAANLSMMFTEVPFIERFAAARKAGFDAVEFLFPYNYSTLQIQKQLEQNHLTLALFNTAPGDINAGEWGLSALPGREHEAHADIDLALEYALALNCEQVHVMAGVVPAGEDAERYRAVFIDNIRYAADRFAPHGKRILVEALSPGVKPHYLFSSQYQALAIVEEVARDNVFIQLDTFHAQKVDGNLTHLIRDYAGKYAHVQIAGLPDRHEPDDGEINYPWLFRLFDEVGYQGWIGCEYKPRGLTEEGLGWFDAWR
Answer label: not fulfilled

Macromolecule sequence: MNQPLLSVNNLTHLYAPGKGFSDVSFDLWPGEVLGIVGESGSGKTTLLKSISARLTPQQGEIHYENRSLYAMSEADRRRLLRTEWGVVHQHPLDGLRRQVSAGGNIGERLMATGARHYGDIRATAQKWLEEVEIPANRIDDLPTTFSGGMQQRLQIARNLVTHPKLVFMDEPTGGLDVSVQARLLDLLRGLVVELNLAVVIVTHDLGVARLLADRLLVMKQGQVVESGLTDRVLDDPHHPYTQLLVSSVLQN
Answer label: not fulfilled

Macromolecule sequence: MMSQPAKVLLLYAHPESQDSVANRVLLKPATQLSNVTVHDLYAHYPDFFIDIPREQALLREHEVIVFQHPLYTYSCPALLKEWLDRVLSRGFASGPGGNQLAGKYWRSVITTGEPESAYRYDALNRYPMSDVLRPFELAAGMCRMHWLSPIIIYWARRQSAQELASHARAYGDWLANPLSPGGR [P0A756]
Answer label: fulfilled

Check this sequence for total protein half-life in vivo at or above 9 h: MANPTVIKLQDGNVMPQLGLGVWQASNEEVITAIQKALEVGYRSIDTAAAYKNEEGVGKALKNASVNREELFITTKLWNDDHKRPREALLDSLKKLQLDYIDLYLMHWPVPAIDHYVEAWKGMIELQKEGLIKSIGVCNFQIHHLQRLIDETGVTPVINQIELHPLMQQRQLHAWNATHKIQTESWSPLAQGGKGVFDQKVIRDLADKYGKTPAQIVIRWHLDSGLVVIPKSVTPSRIAENFDVWDFRLDKDELGEIAKLDQGKRLGPDPDQFGG fulfilled

Threshold query (total protein half-life in vivo >= 9 h) on MTKQVKIYHNPRCSKSRETLNLLKENGVEPEVVLYLETPADAATLRDLLKILGMNSARELMRQKEDLYKELNLADSSLSEEALIQAMVDNPKLMERPIVVANGKARIGRPPEQVLEIVG not fulfilled

Evaluate MNIVITGGTGLIGRHLIPRLLELGHQITVVTRNPQKASSVLGPRVTLWQGLADQSNLNGVDAVINLAGEPIADKRWTHEQKERLCQSRWNITQKLVDLINASDTPPSVLISGSATGYYGDLGEVVVTEEEPPHNEFTHKLCARWEEIACRAQSDKTRVCLLRTGVVLAPDGGILGKMLPPFRLGLGGPIGSGRQYLAWIHIDDMVNGILWLLDNELRGPFNMVSPYPVRNEQFAHALGHALHRPAILRVPATAIRLLMGESSVLVLGGQRALPKRLEEAGFAFRWYDLEEALADVVR : total protein half-life in vivo at minimum 9 h? fulfilled

Record MGLPPLSKIPLILRPQAWLHRRHYGEVLSPIRWWGRIPFIFYLVSMFVGWLERKRSPLDPVVRSLVSARIAQMCLCEFCVDITSMKVAERTGSSDKLLAVADWRQSPLFSDEERLALEYAEAASVTPPTVDDALRTRLAAHFDAQALTELTALIGLQNLSARFNSAMDIPAQGLCRIPEKRS ; criterion: total protein half-life in vivo no lower than 9 h. Met? fulfilled

---

# Assay notes: total protein half-life in vivo (active degradation + dilution); higher = more stable protein
# Cond: wild type E. coli NCM3722; growth: N-lim chemostat; doubling time 6 h
Quantity measured: total protein half-life in vivo (h)
Report as a plain number; the unit h is understood.

// below: answered sequences
Macromolecule sequence: MPLLDIRNLTIEFKTGDEWVKAVDRVSMTLTEGEIRGLVGESGSGKSLIAKAICGVNKDNWRVTADRMRFDDIDLLRLSARERRKLVGHNVSMIFQEPQSCLDPSERVGRQLMQNIPAWTYKGRWWQRFGWRKRRAIELLHRVGIKDHKDAMRSFPYELTEGECQKVMIAIALANQPRLLIADEPTNSMEPTTQAQIFRLLTRLNQNSNTTILLISHDLQMLSQWADKINVLYCGQTVETAPSKELVTMPHHPYTQALIRAIPDFGSAMPHKSRLNTLPGAIPLLEQLPIGCRLGPRCPYAQRECIVTPRLTGAKNHLYACHFPLNMEKE [P0AAH4]
Unit annotation: h
total protein half-life in vivo: 5.58
//
Macromolecule sequence: MSIRFARKADCAAIAEIYNHAVLYTAAIWNDQTVDADNRIAWFEARTLAGYPVLVSEENGVVTGYASFGDWRSFDGFRHTVEHSVYVHPDHQGKGLGRKLLSRLIDEARDCGKHVMVAGIESQNQASLHLHQSLGFVVTAQMPQVGTKFGRWLDLTFMQLQLDERTEPDAIG
Unit annotation: h
total protein half-life in vivo: 4.93

In the following, a different sequence is considered.
Requested read-out: total protein half-life in vivo. Entry: MKLSRISAINWNKISDDKDLEVWNRLTSNFWLPEKVPLSNDIPAWQTLTVVEQQLTMRVFTGLTLLDTLQNVIGAPSLMPDALTPHEEAVLSNISFMEAVHARSYSSIFSTLCQTKDVDAAYAWSEENAPLQRKAQIIQQHYRGDDPLKKKIASVFLESFLFYSGFWLPMYFSSRGKLTNTADLIRLIIRDEAVHGYYIGYKYQKNMEKISLGQREELKSFAFDLLLELYDNELQYTDELYAETPWADDVKAFLCYNANKALMNLGYEPLFPAEMAEVNPAILAALSPNADENHDFFSGSGSSYVMGKAVETEDEDWNF 1.85

---

# Assay notes: total protein half-life in vivo (active degradation + dilution); higher = more stable protein
# Cond: E. coli NCM3722 delta-lon; growth: N-lim chemostat; doubling time 6 h
Quantity measured: total protein half-life in vivo (h)
Your answer should be a plain number; it is taken to be in h.

Example cases with answers are listed next.
Macromolecule sequence: MDIIFYHPTFDTQWWIEALRKAIPQARVRAWKSGDNDSADYALVWHPPVEMLAGRDLKAVFALGAGVDSILSKLQAHPEMLNPSVPLFRLEDTGMGEQMQEYAVSQVLHWFRRFDDYRIQQNSSHWQPLPEYHREDFTIGILGAGVLGSKVAQSLQTWRFPLRCWSRTRKSWPGVQSFAGREELSAFLSQCRVLINLLPNTPETVGIINQQLLEKLPDGAYLLNLARGVHVVEDDLLAALDSGKVKGAMLDVFNREPLPPESPLWQHPRVTITPHVAAITRPAEAVEYISRTIAQLEKGERVCGQVDRARGY
total protein half-life in vivo (h): 4.67

Macromolecule sequence: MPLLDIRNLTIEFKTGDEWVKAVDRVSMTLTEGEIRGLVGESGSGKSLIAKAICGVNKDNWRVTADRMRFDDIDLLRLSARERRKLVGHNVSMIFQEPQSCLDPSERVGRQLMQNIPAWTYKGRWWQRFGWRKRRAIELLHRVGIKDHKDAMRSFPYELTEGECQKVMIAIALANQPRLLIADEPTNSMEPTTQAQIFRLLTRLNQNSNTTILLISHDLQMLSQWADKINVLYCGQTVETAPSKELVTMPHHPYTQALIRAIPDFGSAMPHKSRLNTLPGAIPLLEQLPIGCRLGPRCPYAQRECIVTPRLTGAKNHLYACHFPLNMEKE [P0AAH4]
total protein half-life in vivo (h): 5.96

Looking for the measured total protein half-life in vivo of MSFELPALPYAKDALAPHISAETIEYHYGKHHQTYVTNLNNLIKGTAFEGKSLEEIIRSSEGGVFNNAAQVWNHTFYWNCLAPNAGGEPTGKVAEAIAASFGSFADFKAQFTDAAIKNFGSGWTWLVKNSDGKLAIVSTSNAGTPLTTDATPLLTVDVWEHAYYIDYRNARPGYLEHFWALVNWEFVAKNLAA [P0AGD3] , can you help? 6.2

Reported total protein half-life in vivo for MIREAQRSELPAILELWLESTTWGHPFIKANYWRDCIPLVRDAYLANAQNWVWEEDGKLLGFVSIMEGRFLAAMFVAPKAVRRGIGKALMQYVQQRHPHLMLEVYQKNQPAINFYQAQGFHIVDCAWQDETQLPTWIMSWPVVQTL : what is it? 3.34

Quick one: total protein half-life in vivo of MSEKVVFSQLSRKFIDENDATPAEAQQVVYYSLAIGHHLGVIDCLEAALTCPWDEYLAWIATLEAGSEARRKMEGVPKYGEIVIDINHVPMLANAFDKARAAQTSQQQEWSTMLLSMLHDIHQENAIYLMVRRLRD [P0AEV7] ? 2.37

// lookup total protein half-life in vivo for MLILISPAKTLDYQSPLTTTRYTLPELLDNSQQLIHEARKLTPPQISTLMRISDKLAGINAARFHDWQPDFTPANARQAILAFKGDVYTGLQAETFSEDDFDFAQQHLRMLSGLYGVLRPLDLMQPYRLEMGIRLENARGKDLYQFWGDIITNKLNEALAAQGDNVVINLASDEYFKSVKPKKLNAEIIKPVFLDEKNGKFKIISFYAKKARGLMSRFIIENRLTKPEQLTGFNSEGYFFDEDSSSNGELVFKRYEQR [P0A8I3] 3.07

Attribution: the supplement of paper PMC11246515
